Assay: changes in parasitized red cell lysis, either direction – P. falciparum Indochina, OD700, 3 h, PSAC antagonist project, primary screen (AID 1156)
Details: P. falciparum-infected erythrocytes, osmotic lysis, higher = more signal, called active from +8 up or from −8 down

{"compound": "CN(C)CCCNC(=O)[C@@H]1c2ccccc2C(=O)N(Cc2ccccc2C(F)(F)F)[C@H]1c1ccc(CO)cc1", "z-score": 1.21}
{"compound": "COc1ccccc1CN1C(=O)c2ccccc2[C@](Cc2ccccc2I)(C(=O)NCC(C)C)[C@@H]1c1ccc(CO)cc1", "z-score": 2.61}
{"compound": "[N-]=[N+]=Nc1ccccc1[C@@H]1OC(c2ccc(OCCCO)cc2)=N[C@]1(CCS(=O)(=O)c1ccccc1)C(=O)NCC(O)CO (some centres not stated)", "z-score": 1.08}
{"compound": "CC(C)C(=C=CC[C@H](O)c1ccccc1OCCO)C[C@H](O)COCc1ccccc1", "z-score": 1.54}
{"compound": "C=CCC(OC(C)=O)[C@@H]1[C@@H](N(Cc2cccc3ccccc23)C(=O)Cc2ccc(OC)cc2)c2cc(OCCCO)ccc2N1C(=O)c1ccc2ccccc2c1 (some centres not stated)", "z-score": -0.214}
{"compound": "COC(=O)[C@@]1(Cc2ccccc2)[C@H]2c3cc(C(=O)N(C)C)n(Cc4ccc(C(F)(F)F)nc4)c3C[C@H]2CN1C(=O)c1ccccc1", "z-score": 1.3}
{"compound": "CCOC(=O)C1=CC[C@@H](c2ccc(OC)cc2)N(S(=O)(=O)c2ccc(C)cc2)[C@H]1c1ccc(C)cc1", "z-score": -0.715}

----------
Molecular target: NADPH oxidase 5 (Homo sapiens)
Experiment: compounds shifting NOX5 Amplex Red fluorescence – cell-based, HEK293-NOX5, NOX inhibitor project, primary screen (AID 1161)
Conditions: HEK293-NOX5, ionomycin, 45 min, higher = more signal
Field: class. Source value: z-score. Ranges: lower level: < -1; middle level: ≥ -1 and < 0.7; upper level: ≥ 0.7

{"compound": "C=C(CCCC)C(=O)CC[C@@H](OC(=O)c1ccccc1-c1ccccc1C(=O)O)c1ccccc1OCCO", "className": "lower level"}
{"compound": "C=C(C)[C@@H]1CC=C(C(O)C2C=CC3C(=O)N(c4ccccc4)C(=O)C3N2Nc2ccc([N+](=O)[O-])cc2)CC1 (some centres undefined)", "className": "lower level"}
{"compound": "C[C@@H]1ON(c2ccc(I)cc2)[C@H](c2cccc(NC(=O)OCC3c4ccccc4-c4ccccc43)c2)[C@H]1C(=O)N1C(=O)OC[C@H]1Cc1ccccc1", "className": "lower level"}
{"compound": "CN(C)CCCC[C@@H]1NC(=O)[C@H]2C[C@@H](C(=O)O)[C@@H](c3ccc(O)cc3)N2C1=O", "className": "upper level"}
{"compound": "CC(C)N1C(=O)c2ccccc2[C@](C)(C(=O)NCC(F)(F)F)[C@@H]1c1ccc(CO)cc1", "className": "upper level"}
{"compound": "C=CCNC(=O)[C@H]1[C@@H]2C(=O)O[C@@H](c3ccccc3)[C@@H](c3ccccc3)N2[C@@H](c2ccccc2OCCO)[C@]12C(=O)N(C(=O)OCCOC)c1ccc(C#Cc3ccc(OC)cc3)cc12", "className": "middle level"}
{"compound": "CCCC[C@H]1C[C@@H]1[C@@H]1N(C(C)=O)[C@H](c2cccc(OC)c2)CC12CC2", "className": "lower level"}
{"compound": "CCOC(=O)C[C@H]1[C@H](OC(=O)c2ccccc2-c2ccccc2)[C@@H](NC(=O)c2ccc3ccccc3c2)c2cc(OCCCO)ccc2N1C(=O)Cc1ccc(OC)cc1", "className": "upper level"}
{"compound": "O=C1[C@H]2C=C(I)[C@H](C[C@@H]2OCCCCCCO)[C@@]12CO2", "className": "lower level"}
{"compound": "CCOC(=O)C[C@H]1[C@H](OC(=O)Cc2ccc3c(c2)OCO3)[C@@H](NC(=O)c2ccc3ccccc3n2)c2cc(OCCCO)ccc2N1C(=O)Cc1ccc(OC)cc1", "className": "middle level"}
{"compound": "CCOC(=O)C1=CC[C@@H](c2ccccc2)N(S(=O)(=O)c2ccc(C)cc2)[C@H]1c1ccccc1I", "className": "upper level"}
{"compound": "COc1ccc([Si](C)(C)[C@H]2[C@H](CCO)O[C@@]3(C(=O)N(Cc4cccc(N(C=O)c5ccccc5)c4)c4ccccc43)[C@@H]2C)cc1", "className": "middle level"}
{"compound": "C=C(/C(=C/C[C@@H](OC(C)=O)c1cccc(OCCO)c1)c1cnc2ccccc2c1)C(C)C", "className": "lower level"}

----------
Target: Torsin-1A (Homo sapiens) (UniProt O14656)
Sequence (O14656 whole entry, looked up): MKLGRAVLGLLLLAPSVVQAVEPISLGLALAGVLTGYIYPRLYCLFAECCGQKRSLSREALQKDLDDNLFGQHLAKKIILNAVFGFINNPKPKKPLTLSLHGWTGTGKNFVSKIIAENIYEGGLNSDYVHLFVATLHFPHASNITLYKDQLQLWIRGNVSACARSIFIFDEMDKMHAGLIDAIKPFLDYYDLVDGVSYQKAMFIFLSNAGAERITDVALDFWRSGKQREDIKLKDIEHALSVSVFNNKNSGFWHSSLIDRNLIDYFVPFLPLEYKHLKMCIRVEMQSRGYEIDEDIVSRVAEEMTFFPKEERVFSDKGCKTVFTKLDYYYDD
Experiment: torsin A mutant lysate binding on microarrays – cell lysate, small-molecule microarray, COS7 lysate, 635/667 nm fluorescence, primary screen (AID 1150);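 also: score pools 667 nm emission and signal to noise measuring lysate protein binding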
Conditions: COS7 hTOR1A mutant lysate, 635 nm fluorescence, higher = more signal
Listed molecules paired with reported composite z-score

{"molecule": "O=C1O[C@H](Cc2ccccc2)[C@@H]2[C@H]3C=CCCC=C3CN2[C@H]1Cc1ccc(O)cc1", "composite z-score": -0.632}
{"molecule": "C=CCNC(=O)[C@H]1[C@@H]2C(=O)O[C@@H](c3ccccc3)[C@@H](c3ccccc3)N2[C@@H](c2ccc(OCCO)cc2)[C@]12C(=O)Nc1ccc(C#CC3(O)CCCCCC3)cc12", "composite z-score": 0.564}
{"molecule": "C=CCNC(=O)[C@H]1[C@@H]2C(=O)O[C@@H](c3ccccc3)[C@@H](c3ccccc3)N2[C@@H](c2ccccc2OCCO)[C@]12C(=O)N(C(=O)OCCOC)c1ccc(C#Cc3ccc(OC)cc3)cc12", "composite z-score": 0.51}
{"molecule": "C[N+](C)(C)CCCC[C@@H]1NC(=O)[C@@H]2C[C@H](C(=O)NCc3ccc(F)cc3)[C@H](c3ccc(O)cc3)N2C1=O", "composite z-score": 0.729}
{"molecule": "Cc1ccc(S[C@]2(C(=O)NCC(F)(F)F)CC(=O)N(Cc3ccccc3C(F)(F)F)[C@@H]2c2ccc(CO)cc2)cc1", "composite z-score": 0.0748}
{"molecule": "NC(=O)NCC#Cc1ccc2c(c1)[C@]1(C(=O)N2)[C@H](c2ccc(OCCO)cc2)N2[C@H](c3ccccc3)[C@H](c3ccccc3)OC(=O)[C@H]2[C@@H]1C(=O)O", "composite z-score": 0.141}
{"molecule": "CC(C)(C)N1CC=CC23O[C@@H]4C=CCOC(=O)[C@@H]4[C@H]2C(=O)N(CCO)[C@@H]3C1=O (some centres undefined)", "composite z-score": -1.07}
{"molecule": "COCC(=C=CC[C@H](O)c1ccccc1OCCO)C[C@H](O)COCc1ccccc1", "composite z-score": 1.13}
{"molecule": "C=CC[C@@]1(C(=O)OC)N=C(c2ccc(OCCCO)cc2)O[C@@H]1c1ccccc1N=[N+]=[N-]", "composite z-score": 0.672}
{"molecule": "O=C1O[C@@H](c2ccccc2)[C@@H](c2ccccc2)N2[C@@H](c3ccc(OCCO)cc3)[C@]3(C(=O)Nc4ccc(C#CCCO)cc43)[C@@H](C(=O)O)[C@H]12", "composite z-score": 0.203}
{"molecule": "CC(C)NC(=O)[C@@]1(c2ccc([N+](=O)[O-])cc2)CC(=O)N(CC23CC4CC(CC(C4)C2)C3)[C@@H]1c1ccc(CO)cc1", "composite z-score": 1.36}
{"molecule": "CCOC(=O)C1=CC[C@@H](c2ccc(OC)cc2)N(S(=O)(=O)c2ccc(C)cc2)[C@H]1c1ccc(C)cc1", "composite z-score": 0.308}
{"molecule": "C=CCC(OC(C)=O)[C@@H]1[C@@H](N(Cc2ccc(-c3cccc(C(F)(F)F)c3)o2)C(=O)Cc2ccc(F)cc2)c2cc(OCCCO)ccc2N1C(=O)Cc1ccc2ccccc2c1 (some centres undefined)", "composite z-score": -0.673}
{"molecule": "Cc1ccc(S[C@]2(C(=O)NC(C)C)CC(=O)N(C3CCCCC3)[C@@H]2c2ccc(CO)cc2I)cc1", "composite z-score": 2.76}
{"molecule": "CC(C)(C)N1CC=CC23O[C@@H]4/C=C\\CCCOC(=O)C4[C@H]2C(=O)N(CCCCCO)[C@@H]3C1=O (some centres undefined)", "composite z-score": -1.33}
{"molecule": "C=CCC(OC(C)=O)[C@@H]1[C@@H](N(Cc2cccc3ccccc23)C(=O)c2ccc(-c3ccccc3)cc2)c2cc(OCCCO)ccc2N1C(=O)Cc1ccc2ccccc2c1 (some centres undefined)", "composite z-score": -0.337}
{"molecule": "NC(=O)N1C(=O)C2C(C1=O)C1C=C(CCCO)C2C(C2CC2)N1Cc1sc2ccccc2c1Cl (centres undefined)", "composite z-score": 0.82}
{"molecule": "C=C(COC)/C(=C/C[C@@H](OC(C)=O)c1ccccc1OCCO)c1cnc2ccccc2c1", "composite z-score": 2.34}
{"molecule": "N#Cc1ccc(NN2C(C(O)C3CC=CCC3)C=CC3C(=O)N(c4ccccc4)C(=O)C32)cc1 (centres undefined)", "composite z-score": 0.202}
{"molecule": "[N-]=[N+]=Nc1ccccc1C[C@@]1(C(=O)NCC(O)CO)N=C(c2ccc(OCCCO)cc2)O[C@@H]1c1ccccc1 (some centres undefined)", "composite z-score": 0.944}
{"molecule": "CC(C)(C)N1CC=CC23O[C@@H]4/C=C\\CCCOC(=O)C4[C@H]2C(=O)N(CCCO)[C@@H]3C1=O (some centres undefined)", "composite z-score": 0.645}
{"molecule": "N#Cc1ccc(C(O)C2C=CC3C(=O)NC(=O)C3N2Nc2ccc(Cl)cc2Cl)cc1 (centres undefined)", "composite z-score": 0.0924}
{"molecule": "C=C(CCCC)C(=O)CC[C@H](OC(=O)c1ccccc1-c1ccccc1C(=O)O)c1ccc(OCCO)cc1", "composite z-score": 0.204}
{"molecule": "O=C(NCc1ccccc1)[C@@H]1c2ccccc2C(=O)N(Cc2ccc(OC(F)(F)F)cc2)[C@H]1c1ccc(CO)cc1", "composite z-score": 0.162}
{"molecule": "CO[C@H]1O[C@H](CO)[C@@H](OC(=O)Nc2ccc3c(c2)OCO3)[C@H](OC(=O)Nc2ccccc2-c2ccccc2)[C@H]1OC(=O)Nc1ccccc1-c1ccccc1", "composite z-score": 1.55}
{"molecule": "C=C1C(=O)C=C2CN(C(=O)c3ccccc3)[C@@](Cc3ccc(OC)cc3)(C(=O)OC)[C@@H]12", "composite z-score": 0.319}
{"molecule": "OCCCC1=CC(c2ccc(CN3CCCC3)cc2)N(Cc2cccc(OC(F)(F)F)c2)CC1 (centres undefined)", "composite z-score": -0.165}
{"molecule": "O=C(NCCN1CCOCC1)[C@@H]1c2ccccc2C(=O)N(Cc2ccccc2C(F)(F)F)[C@H]1c1ccc(CO)cc1", "composite z-score": 0.0912}
{"molecule": "COC(=O)C[C@H]1O[C@@]2(C[C@@H]1[Si](C)(C)C)C(=O)N(C)c1ccccc12", "composite z-score": 0.117}
